Source listed as the supplement of paper PMC9112550.

# System: Escherichia coli TOP10
# method_description: shrunken log2 fold change of peptide-encoding DNA abundance (4.5 h post-induction vs induction); higher = less antimicrobial activity (less host growth inhibition)
# protocol_conditions: time post-induction: 4.5 h; library: site-saturation at positions 5, 18, 19, 20
Assignment: determine reported shrunken log2 fold change for the given sequences.

Ask: # get_value(readout='shrunken log2 fold change', item= RRIRPRPPRLPRPRPRPVKQPRP )
Result: 0.169

Ask: Also need RRIRIRPPRLPRPRPRPTCAPRP , thanks.
Result: -0.166

Ask: Also need RRIRDRPPRLPRPRPRPKGVPRP , thanks.
Result: -0.00195

Ask: Also need RRIRWRPPRLPRPRPRPKERPRP , thanks.
Result: 0.0355

Ask: Also need RRIRLRPPRLPRPRPRPVHEPRP , thanks.
Result: 0.0233

Ask: Also need RRIRPRPPRLPRPRPRPVTDPRP , thanks.
Result: -0.393

Ask: Also need RRIRCRPPRLPRPRPRPRTMPRP , thanks.
Result: -0.0155

Ask: Also need RRIRRRPPRLPRPRPRPSVLPRP , thanks.
Result: -0.0526

For each of the sequences below, state shrunken log2 fold change.
1. RRIRCRPPRLPRPRPRPGTWPRP
2. RRIRVRPPRLPRPRPRPGFPPRP
3. RRIRERPPRLPRPRPRPSAIPRP
4. RRIRCRPPRLPRPRPRPFCPPRP
5. RRIRIRPPRLPRPRPRPCWSPRP

Result:
1. 0.011
2. 0.141
3. -0.115
4. -0.225
5. 0.0832

For each of the sequences below, state shrunken log2 fold change.
1. RRIRERPPRLPRPRPRPYDDPRP
2. RRIRERPPRLPRPRPRPQGFPRP
3. RRIRTRPPRLPRPRPRPFNEPRP

Result:
1. -0.341
2. -0.144
3. -0.311

* * *

# Tested on: Escherichia coli TOP10
# method_description: shrunken log2 fold change of peptide-encoding DNA abundance (4.5 h post-induction vs induction); higher = less antimicrobial activity (less host growth inhibition)
# protocol_conditions: time post-induction: 4.5 h; library: site-saturation at positions 5, 18, 19, 20
Label True for high-side shrunken log2 fold change (at or above 0.05) and False for low-side shrunken log2 fold change (below it).

Ask: Identify whether the reported shrunken log2 fold change of the following sequence is 0.05 or greater: RRIRFRPPRLPRPRPRPIKRPRP
Result: True

Ask: Also need RRIRIRPPRLPRPRPRPKYWPRP , thanks.
Result: False

Ask: Also need RRIRHRPPRLPRPRPRPQPPPRP , thanks.
Result: True

Ask: Also need RRIRFRPPRLPRPRPRPYNGPRP , thanks.
Result: False

* * *

Assignment: determine reported shrunken log2 fold change for the given sequences.
# System: Escherichia coli TOP10
# method_description: shrunken log2 fold change of peptide-encoding DNA abundance (4.5 h post-induction vs induction); higher = less antimicrobial activity (less host growth inhibition)
# protocol_conditions: time post-induction: 4.5 h; library: site-saturation at positions 5, 18, 19, 20
One number for each entry.

Worked examples, 3 sequences total:
Ask: # get_value(readout='shrunken log2 fold change', item= RRIRQRPPRLPRPRPRPSYEPRP )
Result: 0.0509

Ask: Also need RRIRLRPPRLPRPRPRPDDDPRP , thanks.
Result: 0.129

Ask: Also need RRIRIRPPRLPRPRPRPGRWPRP , thanks.
Result: 0.473

Then this sequence:
Ask: # get_value(readout='shrunken log2 fold change', item= RRIRHRPPRLPRPRPRPPLNPRP )
Result: -0.0242

* * *

Assignment: determine reported shrunken log2 fold change for the given sequences.
# Tested on: Escherichia coli TOP10
# method_description: shrunken log2 fold change of peptide-encoding DNA abundance (4.5 h post-induction vs induction); higher = less antimicrobial activity (less host growth inhibition)
# protocol_conditions: time post-induction: 4.5 h; library: site-saturation at positions 5, 18, 19, 20

Worked examples, 4 sequences total:
Ask: Form entry - test system: Escherichia coli TOP10; read-out: shrunken log2 fold change; sequence: RRIRHRPPRLPRPRPRPAVTPRP
Result: -0.1

Ask: Also need RRIRERPPRLPRPRPRPPHSPRP , thanks.
Result: 0.0332

Ask: Also need RRIRFRPPRLPRPRPRPGRVPRP , thanks.
Result: 0.787

Ask: Also need RRIRIRPPRLPRPRPRPYPNPRP , thanks.
Result: -0.072

For each of the sequences below, state shrunken log2 fold change.
1. RRIRFRPPRLPRPRPRPNGSPRP
2. RRIRNRPPRLPRPRPRPDTPPRP
3. RRIRARPPRLPRPRPRPQNMPRP
4. RRIRPRPPRLPRPRPRPTPRPRP

Result:
1: 0.0396; 2: 0.0123; 3: -0.497; 4: 0.769

For each of the sequences below, state shrunken log2 fold change.
1. RRIRKRPPRLPRPRPRPLWGPRP
2. RRIRERPPRLPRPRPRPLILPRP
3. RRIRIRPPRLPRPRPRPAHRPRP

Result:
1. 0.115
2. -0.574
3. -0.133

* * *

# Tested on: Escherichia coli TOP10
# method_description: shrunken log2 fold change of peptide-encoding DNA abundance (4.5 h post-induction vs induction); higher = less antimicrobial activity (less host growth inhibition)
# protocol_conditions: time post-induction: 4.5 h; library: site-saturation at positions 5, 18, 19, 20
Assignment: determine reported shrunken log2 fold change for the given sequences.
Answers are plain numbers.

Ask: # get_value(readout='shrunken log2 fold change', item= RRIRMRPPRLPRPRPRPWMDPRP )
Result: -0.0276

Ask: Also need RRIRKRPPRLPRPRPRPNYEPRP , thanks.
Result: -0.0635

For each of the sequences below, state shrunken log2 fold change.
1. RRIRVRPPRLPRPRPRPGVVPRP
2. RRIRYRPPRLPRPRPRPYGWPRP
3. RRIRTRPPRLPRPRPRPNLKPRP
4. RRIRWRPPRLPRPRPRPKYYPRP
5. RRIRSRPPRLPRPRPRPHVCPRP

Result:
1. 0.43
2. -0.187
3. -0.374
4. -0.84
5. 0.0517

Ask: # get_value(readout='shrunken log2 fold change', item= RRIRNRPPRLPRPRPRPDNFPRP )
Result: -0.00141

* * *

Assignment: determine reported shrunken log2 fold change for the given sequences.
# Test system: Escherichia coli TOP10
# method_description: shrunken log2 fold change of peptide-encoding DNA abundance (4.5 h post-induction vs induction); higher = less antimicrobial activity (less host growth inhibition)
# protocol_conditions: time post-induction: 4.5 h; library: site-saturation at positions 5, 18, 19, 20
Numbers only.

Worked examples, 3 sequences total:
Ask: # get_value(readout='shrunken log2 fold change', item= RRIRCRPPRLPRPRPRPAWQPRP )
Result: 0.359

Ask: Also need RRIRFRPPRLPRPRPRPCERPRP , thanks.
Result: -0.141

Ask: Also need RRIRCRPPRLPRPRPRPLCYPRP , thanks.
Result: -0.439

For each of the sequences below, state shrunken log2 fold change.
1. RRIRSRPPRLPRPRPRPTFWPRP
2. RRIRSRPPRLPRPRPRPGHNPRP
3. RRIRVRPPRLPRPRPRPPVVPRP

Result:
0.536
-0.433
-0.0362

* * *

Assignment: determine reported shrunken log2 fold change for the given sequences.
# Test system: Escherichia coli TOP10;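 also: peptides expressed intracellularly from a pBAD plasmid library in pooled LB shake-flask culture, induced with 0.3% L-arabinose, DNA abundance read by NGS, three biological replicates, DESeq2 with apeglm shrinkage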
# method_description: shrunken log2 fold change of peptide-encoding DNA abundance (4.5 h post-induction vs induction); higher = less antimicrobial activity (less host growth inhibition)
# protocol_conditions: time post-induction: 4.5 h; library: site-saturation at positions 5, 18, 19, 20
Answers are plain numbers.

Worked examples, 3 sequences total:
Ask: # get_value(readout='shrunken log2 fold change', item= RRIRGRPPRLPRPRPRPRKTPRP )
Result: 0.375

Ask: Also need RRIRYRPPRLPRPRPRPACYPRP , thanks.
Result: -0.553

Ask: Also need RRIRKRPPRLPRPRPRPASFPRP , thanks.
Result: 0.559

For each of the sequences below, state shrunken log2 fold change.
1. RRIRARPPRLPRPRPRPWHSPRP
2. RRIRKRPPRLPRPRPRPCWWPRP
3. RRIRPRPPRLPRPRPRPVHDPRP
4. RRIRQRPPRLPRPRPRPHNAPRP
5. RRIRMRPPRLPRPRPRPCFFPRP

Result:
0.0528
0.284
-0.115
-0.0184
0.16

For each of the sequences below, state shrunken log2 fold change.
1. RRIRWRPPRLPRPRPRPHPPPRP
2. RRIRRRPPRLPRPRPRPVTWPRP
3. RRIRMRPPRLPRPRPRPAWIPRP
4. RRIRWRPPRLPRPRPRPKIQPRP

Result:
1: 0.348; 2: 0.182; 3: 0.052; 4: 0.21

For each of the sequences below, state shrunken log2 fold change.
1. RRIRHRPPRLPRPRPRPDAHPRP
2. RRIRGRPPRLPRPRPRPEMSPRP
3. RRIRGRPPRLPRPRPRPYALPRP

Result:
[-0.119, 0.25, 0.0375]

For each of the sequences below, state shrunken log2 fold change.
1. RRIRCRPPRLPRPRPRPCREPRP
2. RRIRERPPRLPRPRPRPNYHPRP
3. RRIRDRPPRLPRPRPRPWETPRP
4. RRIRTRPPRLPRPRPRPPTDPRP
5. RRIRIRPPRLPRPRPRPIPEPRP

Result:
-0.291
-0.626
0.192
0.0638
-0.158
